Target: T1, Zn1Fur (Escherichia coli, UniProt P0A9A9 1-148)
T1 sequence: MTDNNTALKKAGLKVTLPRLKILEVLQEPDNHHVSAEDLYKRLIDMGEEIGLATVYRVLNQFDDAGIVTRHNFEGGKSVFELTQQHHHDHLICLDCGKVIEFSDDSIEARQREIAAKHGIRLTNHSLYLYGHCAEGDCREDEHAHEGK
Assay: FP; EDTA-treated Fur, no Mn2+ added; EMSA: 10 mM Tris-HCl pH 7.5, 1 mM MgCl2, 40 mM KCl, 0.1 mg/ml BSA, 5% glycerol, +/-100 uM MnCl2, 25 nM DNA, 37 C 15 min; FP: 10 mM Tris-HCl pH 7.5, 75 mM NaCl
Conditions: protein: recombinant; tags: N-terminal His (PreScission-cleavable, removed if necessary); chain copies: 2; label: FAM; blunt
measure: Kd

>>> observed("Fur box DNA (dsDNA) DNA 1: GATAATGATAATGATAATGATAATGATAATGA DNA 2: TCATTATCATTATCATTATCATTATCATTATC")
"7.2 µM"
